Listing of recorded viability at 10 µM by entry.
Tested on: Huh7 (hepatocellular carcinoma) cell line
Assay: CellTiter-Glo luminescent cell viability assay, Huh7
Format: cell-based, human
Details: Homo sapiens, Huh-7; Huh7, compound at 10 μM, 72 h
Protocol: All cell lines were maintained in medium containing 1% penicillin-streptomycin (Dutscher, P06-07100) and 10% Fetal Bovine Serum (Hyclone Dutscher, RZK35922) cultured at 37° C. with 5% CO2. […] Cell viability was measured using the CellTiter-Glo® luminescent cell viability assay as described by the manufacturer (Promega, Ref G7571) using an Infinite F200Pro luminometer (Tecan). […]
reportedMetric: viability at 10 µM (%)

• N#Cc1c(NCc2ccc(Cl)cc2)nc2ccccc2c1N1CCC(N2CCCC2)C1 (centres unmarked) [Compound 148CN] = 80.8
• CC(C)(C)NC1CCN(c2c(C#N)c(NCc3cccnc3)nc3ccccc23)CC1 [Compound 3304CN] = 82.8
• N#Cc1c(NCc2ccc(Cl)cc2)nc2ccccc2c1N1CCC(Oc2ccc(Cl)cc2)CC1 [Compound 3226CN] = 109
• CC(C)(C)NC1CCN(c2c(C#N)c(Nc3ccc(Cl)cc3)nc3ccccc23)CC1 [Compound 3258CN] = 1.8
• Cc1cc2c(C)nc(Nc3ccc(Nc4nc5ccccc5c(N5CCC(NC(C)(C)C)CC5)c4C#N)cc3C)nc2o1 [Compound 512CN] = 0.3
• CCN(CC)C1CCCN(c2c(C#N)c(NCc3ccc(Cl)cc3)nc3ccccc23)C1 (centres unmarked) [Compound 160CN] = 62.3
• CC(C)(C)NC1CCN(c2c(C#N)c(Nc3cccc(C(F)(F)F)c3)nc3ccccc23)CC1 [Compound 3256CN] = 29.3
• Cc1ccc(Nc2nc3ccccc3c(N3CCC(NC(C)(C)C)CC3)c2C#N)cc1 [Compound 3248CN] = 56.3
• COc1ccc(CNc2nc3ccccc3c(N3CCC(NC(C)(C)C)CC3)c2C#N)cc1 [Compound 3290CN] = 1
• N#Cc1c(NCc2ccc(Cl)cc2)nc2ccccc2c1N1CCCC(N2CCOCC2)C1 (centres unmarked) [Compound 178CN] = 81.9
• CC(C)(C)NC1CCN(c2c(C#N)c(NCc3ccccn3)nc3ccccc23)CC1 [Compound 3308CN] = 74.2
